- System: SNB-19
- PROTOCOL_SUMMARY: Growth inhibition of human SNB19 cells assessed as cell growth at 10 uM by sulforhodamine B assay
- Type: functional
- EXPERIMENTAL_PARAMETERS: read-out: Activity
PARAMETER: growth at 10 µM (%)
Give bare numbers, in %.

Solved cases (2 shown):
1) CC1(C)C[C@@H](O)[C@]2(C(=O)O)CC[C@]3(C)C(=CC[C@@H]4[C@@]5(C)C/C(=C\C=C\c6ccccc6)C(=O)C(C)(C)[C@@H]5CC[C@]43C)[C@@H]2C1 = 73.4
2) C/C=C(/C)C(=O)O[C@@H]1CC(C)(C)C[C@H]2C3=CC[C@@H]4[C@@]5(C)CC[C@H](O)C(C)(C)[C@@H]5CC[C@@]4(C)[C@]3(C)CC[C@@]12C(=O)O = -53

Consider the record given below.
The compound `CC1(C)C[C@@H](O)[C@]2(C(=O)O)CC[C@]3(C)C(=CC[C@@H]4[C@@]5(C)CCC(=O)C(C)(C)[C@@H]5CC[C@]43C)[C@@H]2C1` showed growth at 10 µM equal to 94.2

----------
Can you tell me GI50 for the items I'm about to list?
- Test system: CCRF-CEM
- PROTOCOL_SUMMARY: Growth inhibition of human CCRF-CEM cells by sulforhodamine B assay
- Format: functional
- EXPERIMENTAL_PARAMETERS: read-out: GI50
Answers are plain numbers, in nM.

1. C/C=C(/C)C(=O)O[C@@H]1CC(C)(C)C[C@H]2C3=CC[C@@H]4[C@@]5(C)CCC(=O)C(C)(C)[C@@H]5CC[C@@]4(C)[C@]3(C)CC[C@@]12C(=O)O [LANTADENE A] = 3480

For every listed record, write down its GI50.
1. CC(C)=CC(=O)O[C@@H]1CC(C)(C)C[C@H]2C3=CC[C@@H]4[C@@]5(C)CC[C@H](O)C(C)(C)[C@@H]5CC[C@@]4(C)[C@]3(C)CC[C@@]12C(=O)O [Reduced Lantadene B]
2. C/C=C(/C)C(=O)O[C@@H]1CC(C)(C)C[C@H]2C3=CC[C@@H]4[C@@]5(C)CC[C@H](O)C(C)(C)[C@@H]5CC[C@@]4(C)[C@]3(C)CC[C@@]12C(=O)O [Reduced Lantadene A]
3. CC(C)=CC(=O)O[C@@H]1CC(C)(C)C[C@H]2C3=CC[C@@H]4[C@@]5(C)CCC(=O)C(C)(C)[C@@H]5CC[C@@]4(C)[C@]3(C)CC[C@@]12C(=O)O
4. CC1(C)C[C@@H](O)[C@]2(C(=O)O)CC[C@]3(C)C(=CC[C@@H]4[C@@]5(C)C/C(=C\C=C\c6ccccc6)C(=O)C(C)(C)[C@@H]5CC[C@]43C)[C@@H]2C1

1: 2830; 2: 2310; 3: 2140; 4: 2790

----------
Exercise: for every item that follows, state its recorded growth at 10 µM.
- System: CAKI-1
- PROTOCOL_SUMMARY: Growth inhibition of human CAKI-1 cells assessed as cell growth at 10 uM by sulforhodamine B assay
- Format: functional
- EXPERIMENTAL_PARAMETERS: read-out: Activity
Give bare numbers, in %.

1. COc1cc(/C=C2\C[C@]3(C)[C@H]4CC=C5[C@@H]6CC(C)(C)C[C@@H](O)[C@]6(C(=O)O)CC[C@@]5(C)[C@]4(C)CC[C@H]3C(C)(C)C2=O)ccc1O = 78.8
2. CC1(C)C[C@@H](O)[C@]2(C(=O)O)CC[C@]3(C)C(=CC[C@@H]4[C@@]5(C)C/C(=C\C=C\c6ccccc6)C(=O)C(C)(C)[C@@H]5CC[C@]43C)[C@@H]2C1 = 43

# context switch: different compound, same growth at 10 µM
Entry `C/C=C(/C)C(=O)O[C@@H]1CC(C)(C)C[C@H]2C3=CC[C@@H]4[C@@]5(C)CCC(=O)C(C)(C)[C@@H]5CC[C@@]4(C)[C@]3(C)CC[C@@]12C(=O)O` ; assay system CAKI-1; growth at 10 µM recorded at 48.4

The values you see were collected from ChEMBL document CHEMBL2413072.
